Every entry's value here was drawn from patent US20200223889A1.

target: human MC4R (Homo sapiens, UniProt P32245); construct: expressed in transfected cells; experiment: Functional cAMP assay (CisBio HTRF) in BHK cells expressing human MC4R; type: cell-based; settings: MC1R cAMP EC50 divided by MC4R cAMP EC50
Sequence (P32245 whole entry): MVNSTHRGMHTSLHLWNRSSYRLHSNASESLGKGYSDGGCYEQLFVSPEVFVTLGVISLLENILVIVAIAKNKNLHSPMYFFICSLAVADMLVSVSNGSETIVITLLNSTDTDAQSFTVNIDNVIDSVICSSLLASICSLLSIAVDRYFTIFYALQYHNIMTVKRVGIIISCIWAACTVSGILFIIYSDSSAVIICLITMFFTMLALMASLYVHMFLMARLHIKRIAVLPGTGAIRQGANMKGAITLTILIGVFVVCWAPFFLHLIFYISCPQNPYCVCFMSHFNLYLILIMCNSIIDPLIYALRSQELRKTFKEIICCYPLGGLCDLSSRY
Positions of bridges follow the written chain, without caps; N, C: chain ends. Non-standard residues stand in square brackets, D forms with d. Residues, ends and D or L forms follow the SMILES beside them.
Observation Type: MC1R/MC4R cAMP EC50 ratio

Input: Consider the compound shown here: C[C@@H]1NC(=O)[C@@H]2CSSC[C@H](NC(=O)[C@H](Cc3c[nH]c4ccccc34)NC(=O)[C@H](CCCNC(=N)N)NC(=O)[C@@H](Cc3ccccc3)NC(=O)[C@H](Cc3c[nH]cn3)NC1=O)C(=O)N[C@@H](CCCNC(=N)N)C(=O)N[C@@H](Cc1ccccc1)C(=O)N[C@@H](Cc1ccccc1)C(=O)N[C@@H](CC(N)=O)C(=O)N[C@@H](C)C(=O)N[C@@H](Cc1ccccc1)C(=O)N2 [Chem. 13] (cyclo(AFCAH[dF]RWCRFFN); disulfide 3-9) What is its recorded MC1R/MC4R cAMP EC50 ratio?
Output: 64

* * *

molecular target: human MC1R (Homo sapiens, UniProt Q01726); construct: expressed in transfected cells; experiment: Functional cAMP assay (CisBio HTRF) in BHK cells expressing human MC1R; format: cell-based
Sequence (Q01726 whole entry): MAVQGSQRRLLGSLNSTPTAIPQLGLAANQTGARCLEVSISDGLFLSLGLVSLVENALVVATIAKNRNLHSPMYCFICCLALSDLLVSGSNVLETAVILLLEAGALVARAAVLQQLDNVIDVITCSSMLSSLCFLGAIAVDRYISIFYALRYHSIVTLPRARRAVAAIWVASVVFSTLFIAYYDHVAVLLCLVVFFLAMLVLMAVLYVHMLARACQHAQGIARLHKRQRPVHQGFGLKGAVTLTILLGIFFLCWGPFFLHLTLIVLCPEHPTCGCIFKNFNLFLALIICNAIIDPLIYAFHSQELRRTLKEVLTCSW
Positions of bridges follow the written chain, without caps; N, C: chain ends. Non-standard residues stand in square brackets, D forms with d. Residues, ends and D or L forms follow the SMILES beside them. Thz = O=C(O)[C@@H]1CSCN1
Please go through the items and note down their EC50.

The examples below pair each entry with its known result.
Input: Consider the compound shown here: C[C@@H]1NC(=O)[C@H](CC(=O)O)NC(=O)[C@H](CC(=O)O)NC(=O)[C@H](C)NC(=O)[C@@H]2CSSC[C@H](NC(=O)[C@H](Cc3c[nH]c4ccccc34)NC1=O)C(=O)N1CSC[C@H]1C(=O)N[C@@H](Cc1c[nH]cn1)C(=O)N[C@H](Cc1ccccc1)C(=O)N[C@@H](Cc1c[nH]cn1)C(=O)N[C@@H](Cc1c[nH]c3ccccc13)C(=O)N2 [Chem. 106] (cyclo(ADDAWC[Thz]H[dF]HWC); disulfide 6-12) What is its recorded EC50?
Output: > 0.1 µM

Input: Thanks! And C[C@@H]1NC(=O)[C@H](C)NC(=O)[C@@H]2CSSC[C@H](NC(=O)[C@H](Cc3c[nH]c4ccccc34)NC(=O)[C@H](C)NC(=O)[C@H](CCCCN)NC1=O)C(=O)N1CSC[C@H]1C(=O)N[C@@H](Cc1c[nH]cn1)C(=O)N[C@H](Cc1ccccc1)C(=O)N[C@@H](Cc1c[nH]cn1)C(=O)N[C@@H](Cc1c[nH]c3ccccc13)C(=O)N2 [Chem. 109] (cyclo(AAKAWC[Thz]H[dF]HWC); disulfide 6-12) ?
Output: > 0.007 µM

Input: Thanks! And N=C(N)NCCC[C@@H]1NC(=O)[C@@H](Cc2ccccc2)NC(=O)[C@H](Cc2c[nH]cn2)NC(=O)[C@@H]2CSSC[C@H](NC(=O)[C@H](Cc3c[nH]c4ccccc34)NC1=O)C(=O)N[C@@H](Cc1c[nH]cn1)C(=O)N[C@H](Cc1ccccc1)C(=O)N[C@@H](CCCNC(=N)N)C(=O)N[C@@H](Cc1c[nH]c3ccccc13)C(=O)N2 [Chem. 49] (cyclo(CH[dF]RWCH[dF]RW); disulfide 1-6) ?
Output: > 0.0055 µM

Parameter requested: EC50. Apply to each item below.
1. C[C@@H]1NC(=O)[C@H](CCC(=O)O)NC(=O)[C@H](CC(=O)O)NC(=O)[C@H](C)NC(=O)[C@@H]2CSSC[C@H](NC(=O)[C@H](Cc3c[nH]c4ccccc34)NC1=O)C(=O)N1CSC[C@H]1C(=O)N[C@@H](Cc1c[nH]cn1)C(=O)N[C@H](Cc1ccccc1)C(=O)N[C@@H](Cc1c[nH]cn1)C(=O)N[C@@H](Cc1c[nH]c3ccccc13)C(=O)N2 [Chem. 107] (cyclo(ADEAWC[Thz]H[dF]HWC); disulfide 6-12)
2. C[C@@H]1NC(=O)[C@H](CC(=O)O)NC(=O)[C@H](CCC(=O)O)NC(=O)[C@H](C)NC(=O)[C@@H]2CSSC[C@H](NC(=O)[C@H](Cc3c[nH]c4ccccc34)NC1=O)C(=O)N1CSC[C@H]1C(=O)N[C@@H](Cc1c[nH]cn1)C(=O)N[C@H](Cc1ccccc1)C(=O)N[C@@H](Cc1c[nH]cn1)C(=O)N[C@@H](Cc1c[nH]c3ccccc13)C(=O)N2 [Chem. 108] (cyclo(AEDAWC[Thz]H[dF]HWC); disulfide 6-12)
3. O=C1N[C@H]2CSSC[C@H](NC(=O)[C@H](Cc3c[nH]c4ccccc34)NC(=O)[C@H](Cc3c[nH]cn3)NC(=O)[C@@H](Cc3ccccc3)NC(=O)[C@H](Cc3c[nH]cn3)NC(=O)[C@@H]3CSCN3C2=O)C(=O)N2CSC[C@H]2C(=O)N[C@@H](Cc2c[nH]cn2)C(=O)N[C@H](Cc2ccccc2)C(=O)N[C@@H](Cc2c[nH]cn2)C(=O)N[C@H]1Cc1c[nH]c2ccccc12 [Chem. 91] (cyclo(C[Thz]H[dF]HWC[Thz]H[dF]HW); disulfide 1-7)

Output:
1: > 0.1 µM; 2: > 0.1 µM; 3: > 0.01 µM
